Test target: UniProt P52333
Sequence (P52333 1-1124): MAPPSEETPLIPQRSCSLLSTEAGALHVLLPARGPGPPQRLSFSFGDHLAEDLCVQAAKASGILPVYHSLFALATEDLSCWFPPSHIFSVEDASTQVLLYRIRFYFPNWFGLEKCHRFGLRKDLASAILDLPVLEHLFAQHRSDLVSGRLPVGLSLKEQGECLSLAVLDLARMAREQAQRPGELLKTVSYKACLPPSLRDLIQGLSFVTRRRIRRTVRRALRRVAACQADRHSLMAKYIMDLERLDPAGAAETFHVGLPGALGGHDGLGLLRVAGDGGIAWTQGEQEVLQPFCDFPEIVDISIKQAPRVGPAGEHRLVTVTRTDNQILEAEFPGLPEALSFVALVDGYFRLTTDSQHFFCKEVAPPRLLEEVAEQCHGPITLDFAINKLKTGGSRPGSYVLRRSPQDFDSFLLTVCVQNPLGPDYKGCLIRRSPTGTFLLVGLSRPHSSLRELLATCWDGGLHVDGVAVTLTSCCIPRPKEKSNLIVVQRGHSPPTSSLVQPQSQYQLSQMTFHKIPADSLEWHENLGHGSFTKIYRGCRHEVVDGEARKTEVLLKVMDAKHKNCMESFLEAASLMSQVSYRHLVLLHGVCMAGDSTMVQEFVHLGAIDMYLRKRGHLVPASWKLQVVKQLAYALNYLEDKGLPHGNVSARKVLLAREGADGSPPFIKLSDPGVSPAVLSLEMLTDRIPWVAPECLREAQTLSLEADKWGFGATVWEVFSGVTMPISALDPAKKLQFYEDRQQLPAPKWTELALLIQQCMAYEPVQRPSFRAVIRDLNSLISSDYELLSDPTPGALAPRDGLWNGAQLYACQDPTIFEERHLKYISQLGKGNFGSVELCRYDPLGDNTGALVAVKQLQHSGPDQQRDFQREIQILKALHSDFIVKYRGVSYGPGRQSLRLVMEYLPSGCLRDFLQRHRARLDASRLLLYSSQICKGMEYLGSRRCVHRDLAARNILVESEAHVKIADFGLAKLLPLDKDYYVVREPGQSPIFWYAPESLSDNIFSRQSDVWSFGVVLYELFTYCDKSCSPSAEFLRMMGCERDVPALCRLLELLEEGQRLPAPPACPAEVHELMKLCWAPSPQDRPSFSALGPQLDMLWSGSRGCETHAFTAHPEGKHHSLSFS
pKi: −log10 of the molar value.
Measured quantity: pKi

Worked examples, 5 molecules total:
Nc1nn2cc(-c3ccc(C(=O)N4CCC[C@@H](O)C4)cn3)cnc2c1-c1ccccn1 | 5.30 to 6.30
CC(C)CN(C)c1ccc(-c2cnc3c(-c4ccccn4)c(N)nn3c2)cn1 | < 5.30
Cc1cnc2c(-c3cc(N4CCC(CCc5ccccc5)C4)ncn3)c(N)nn2c1 (stereo not shown) | < 5.30
Cc1cnc2c(-c3cc(N4CCC(C(N)=O)CC4)ncn3)c(N)nn2c1 | 5.30 to 6.30
CCCN(CCCN)C(=O)c1cccc(-c2cnc3c(-c4ccccn4)c(N)nn3c2)n1 | 5.30 to 6.30

As a next step, examine the molecule that follows.
Provide the documented pKi with UniProt P52333 as the system for `CCOC(=O)C1CCN(c2cc(-c3cnc4c(-c5ccccn5)c(N)nn4c3)ccn2)CC1` < 5.30

###

Observed pKi, system Itk (Homo sapiens, UniProt Q08881).
pKi: −log10 of the molar value.

CCCN(CCCN)C(=O)c1ccc(-c2cnc3c(-c4ccccn4)c(N)nn3c2)nc1 | > 6.30
Nc1nn2cc(-c3cccc(CCl)c3)cnc2c1-c1ccccn1 | > 6.30
CN1CCN(c2ncccc2-c2cnc3c(-c4ccccn4)c(N)nn3c2)CC1 | 5.30 to 6.30

State its pKi on Itk (Homo sapiens, UniProt Q08881): `CC(C)N(C)C(=O)c1cccc(-c2cnc3c(-c4ccccn4)c(N)nn3c2)n1` 5.30 to 6.30

GET /values?readout=pKi&system=Itk (Homo sapiens, UniProt Q08881)&item= `COc1ccncc1-c1cnc2c(-c3ccccn3)c(N)nn2c1` 5.30 to 6.30

Write down the reported pKi of `CN1CCN(C(=O)c2cccc(-c3cnc4c(-c5ccccn5)c(N)nn4c3)c2)CC1` , test system: Itk (Homo sapiens, UniProt Q08881). 5.30 to 6.30

Fill in the recorded pKi for this molecule, with Itk (Homo sapiens, UniProt Q08881) as test system: Nc1nn2cc(-c3ccncn3)cnc2c1C(=O)N1CCC(O)C1 (stereo not drawn) 5.30 to 6.30

Provide value of pKi for this record tested with Itk (Homo sapiens, UniProt Q08881): `Nc1nn2cc(-c3cccnc3N3CCCCC3)cnc2c1-c1ccccn1` 5.30 to 6.30

Param readout = pKi; param system = Itk (Homo sapiens, UniProt Q08881); param query = Cc1cnc2c(-c3cc(NC4CCNC4)ncn3)c(N)nn2c1 (stereo not drawn) ; response: value > 6.30

###

Recorded Ki values (c-Met (Homo sapiens, UniProt P08581)) are given below.

CC(C)N(C)C(=O)c1cccc(-c2cnc3c(-c4ccccn4)c(N)nn3c2)n1 | < 500 nM

Give recorded Ki with c-Met (Homo sapiens, UniProt P08581) for the following compound: `Nc1nn2cc(-c3ccc(C(=O)N4CCC[C@@H]4CN4CCCC4)cn3)cnc2c1-c1ccccn1` < 500 nM

Find Ki (c-Met (Homo sapiens, UniProt P08581)) for the entry Cc1cnc2c(-c3cc(NC(C)CO)ncn3)c(N)nn2c1 (stereo not drawn) 500 to 5000 nM

Please provide the recorded Ki for `Nc1nn2cc(N3CCOCC3)cnc2c1-c1ccccn1` , tested on c-Met (Homo sapiens, UniProt P08581). < 500 nM

Item: `Nc1nn2cc(CCCO)cnc2c1-c1ccccn1` Test system: c-Met (Homo sapiens, UniProt P08581) Read-out: Ki Value: ? 500 to 5000 nM

Field: Ki (c-Met (Homo sapiens, UniProt P08581)). Entry: `COCCCNC(=O)c1cccc(-c2cnc3c(-c4ccccn4)c(N)nn3c2)n1` < 500 nM

Form field - read-out: Ki; system: c-Met (Homo sapiens, UniProt P08581); submitted item: Nc1nn2cc(-c3ccncn3)cnc2c1C(=O)N1CCC(O)C1 (stereo not drawn) 500 to 5000 nM

GET /values?readout=Ki&system=c-Met (Homo sapiens, UniProt P08581)&item= `Nc1nn2cc(C(=O)NCCc3ccccc3)cnc2c1-c1ccccn1` 500 to 5000 nM

Hello, I am looking for reported Ki with c-Met (Homo sapiens, UniProt P08581) for `CN(CCc1ccccn1)C(=O)c1ccc(-c2cnc3c(-c4ccccn4)c(N)nn3c2)nc1` . Could you help? < 500 nM

Provide the documented Ki with c-Met (Homo sapiens, UniProt P08581) as the system for `CCN(C)C(=O)c1cccc(-c2cnc3c(-c4ccccn4)c(N)nn3c2)n1` < 500 nM

###

Protein target, amino acids: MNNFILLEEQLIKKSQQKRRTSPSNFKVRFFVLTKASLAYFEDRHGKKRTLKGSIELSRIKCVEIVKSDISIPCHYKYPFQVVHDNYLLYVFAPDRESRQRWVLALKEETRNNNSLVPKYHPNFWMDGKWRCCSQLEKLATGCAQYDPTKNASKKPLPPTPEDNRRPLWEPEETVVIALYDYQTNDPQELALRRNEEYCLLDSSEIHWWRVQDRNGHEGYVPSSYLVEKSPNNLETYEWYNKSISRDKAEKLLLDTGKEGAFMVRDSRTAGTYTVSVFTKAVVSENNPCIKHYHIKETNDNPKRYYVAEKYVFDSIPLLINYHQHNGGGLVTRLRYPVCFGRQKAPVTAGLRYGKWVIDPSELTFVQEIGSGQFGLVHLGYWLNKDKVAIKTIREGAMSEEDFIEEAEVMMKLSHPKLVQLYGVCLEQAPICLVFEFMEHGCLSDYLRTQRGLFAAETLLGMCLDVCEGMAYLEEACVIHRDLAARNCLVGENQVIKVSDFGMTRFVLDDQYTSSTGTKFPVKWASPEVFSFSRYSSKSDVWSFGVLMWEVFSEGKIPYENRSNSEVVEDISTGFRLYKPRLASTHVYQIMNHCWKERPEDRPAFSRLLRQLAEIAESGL
Reported Ki by item:

Cc1cnc2c(-c3cc(NC4CC4)ncn3)c(N)nn2c1 | 500 to 5000 nM
Cc1cnc2c(-c3cc(NC4CCC4)ncn3)c(N)nn2c1 | 500 to 5000 nM
Cc1cnc2c(-c3cc(N4CCCC(C)C4)ncn3)c(N)nn2c1 (centres unmarked) | < 500 nM
CCN(CC)CCN(C)C(=O)c1ccc(-c2cnc3c(-c4ccccn4)c(N)nn3c2)nc1 | < 500 nM

Here is the next item to consider.
Recorded Ki for `Nc1nn2cc(-c3ccc4[nH]ccc4c3)cnc2c1-c1ccccn1` , please? < 500 nM

###

Ki data for Itk (Homo sapiens, UniProt Q08881) follow.

Completed entries (count: 6):
CCOC(=O)C1CCN(c2cc(-c3cnc4c(-c5ccccn5)c(N)nn4c3)ccn2)CC1 | 500 to 5000 nM
CN(CCN)C(=O)c1cccc(-c2cnc3c(-c4ccccn4)c(N)nn3c2)n1 | < 500 nM
Nc1nn2cc(-c3ccnc(N4CCC(N5CCCC5)CC4)c3)cnc2c1-c1ccccn1 | 500 to 5000 nM
COc1ccc(-c2cn3nc(N)c(-c4ccccn4)c3nc2C)cc1 | 500 to 5000 nM
CC(C)(C)OC(=O)NCc1ccc(-c2cnc3c(-c4ccccn4)c(N)nn3c2)cc1 | < 500 nM
Cc1cnc2c(-c3cc(N[C@@H](C)c4ccccc4)ncn3)c(N)nn2c1 | 500 to 5000 nM

State its Ki on Itk (Homo sapiens, UniProt Q08881): `COc1ccccc1Nc1cc(-c2c(N)nn3cc(C)cnc23)ncn1` < 500 nM

Test system Itk (Homo sapiens, UniProt Q08881); read-out Ki; what value for `Nc1nn2cc(N3CCCC3)cnc2c1-c1ccccn1` ? 500 to 5000 nM
